Listed here: items and their measured pEC50.
Tested on: pSARS-CoV-2
Assay type: cell-based, SARS-CoV-2
In plain terms, pEC50 is the concentration in mol/L turned into minus its base-10 logarithm.

# compound, target or test system, recorded measurement
rows = [
    ("C=C(C)[C@@H]1CC[C@]2(C(=O)OCC3CC3)CC[C@]3(C)[C@H](CC[C@@H]4[C@@]5(C)CC[C@H](O[C@@H]6O[C@H](CO)[C@@H](O[C@@H]7O[C@@H](C)[C@H](O)[C@@H](O)[C@H]7O)[C@H](O)[C@H]6O[C@@H]6O[C@@H](C)[C@H](O)[C@@H](O)[C@H]6O)C(C)(C)[C@@H]5CC[C@]43C)[C@@H]12 [BA-15]", "pSARS-CoV-2", 4.80),
]

**Q:** Please look up its pEC50: C=C(C)[C@@H]1CC[C@]2(C(=O)OCCBr)CC[C@]3(C)[C@H](CC[C@@H]4[C@@]5(C)CC[C@H](O[C@@H]6O[C@H](CO)[C@@H](O[C@@H]7O[C@@H](C)[C@H](O)[C@@H](O)[C@H]7O)[C@H](O)[C@H]6O[C@@H]6O[C@@H](C)[C@H](O)[C@@H](O)[C@H]6O)C(C)(C)[C@@H]5CC[C@]43C)[C@@H]12 [BA-11]
**A:** 5.04

---

Listed here: items and their measured EC50.
System: pSARS-CoV-2
Format: cell-based, SARS-CoV-2
Number plus unit, in that order.

Some solved entries appear below for comparison.
# structure as smiles, recorded measurement
rows = [
    ("C=C(C)[C@@H]1CC[C@]2(C(=O)OCCCl)CC[C@]3(C)[C@H](CC[C@@H]4[C@@]5(C)CC[C@H](O[C@@H]6O[C@H](CO)[C@@H](O[C@@H]7O[C@@H](C)[C@H](O)[C@@H](O)[C@H]7O)[C@H](O)[C@H]6O[C@@H]6O[C@@H](C)[C@H](O)[C@@H](O)[C@H]6O)C(C)(C)[C@@H]5CC[C@]43C)[C@@H]12", "7.67 µM"),
    ("C=C(C)[C@@H]1CC[C@]2(C(=O)OCCCCCC)CC[C@]3(C)[C@H](CC[C@@H]4[C@@]5(C)CC[C@H](O[C@@H]6O[C@H](CO)[C@@H](O[C@@H]7O[C@@H](C)[C@H](O)[C@@H](O)[C@H]7O)[C@H](O)[C@H]6O[C@@H]6O[C@@H](C)[C@H](O)[C@@H](O)[C@H]6O)C(C)(C)[C@@H]5CC[C@]43C)[C@@H]12", "5.54 µM"),
]

Now consider a different molecule.
**Q:** Please look up its EC50: C=C(C)[C@@H]1CC[C@]2(C(=O)OCCCC)CC[C@]3(C)[C@H](CC[C@@H]4[C@@]5(C)CC[C@H](O[C@@H]6O[C@H](CO)[C@@H](O[C@@H]7O[C@@H](C)[C@H](O)[C@@H](O)[C@H]7O)[C@H](O)[C@H]6O[C@@H]6O[C@@H](C)[C@H](O)[C@@H](O)[C@H]6O)C(C)(C)[C@@H]5CC[C@]43C)[C@@H]12
**A:** 6.42 µM

---

Listed here: items and their measured EC50.
Test system: pSARS-CoV-2
Assay type: cell-based, SARS-CoV-2
Reply with just the number (in µM).

# compound, EC50 (µM)
data = [
    ("C=CCOC(=O)[C@]12CC[C@@H](C(=C)C)[C@@H]1[C@H]1CC[C@@H]3[C@@]4(C)CC[C@H](O[C@@H]5O[C@H](CO)[C@@H](O[C@@H]6O[C@@H](C)[C@H](O)[C@@H](O)[C@H]6O)[C@H](O)[C@H]5O[C@@H]5O[C@@H](C)[C@H](O)[C@@H](O)[C@H]5O)C(C)(C)[C@@H]4CC[C@@]3(C)[C@]1(C)CC2 [BA-14]", 8.23),
]

Now consider a different compound.
**Q:** For pSARS-CoV-2, provide EC50 of C=C(C)[C@@H]1CC[C@]2(C(=O)OC(C)C)CC[C@]3(C)[C@H](CC[C@@H]4[C@@]5(C)CC[C@H](O[C@@H]6O[C@H](CO)[C@@H](O[C@@H]7O[C@@H](C)[C@H](O)[C@@H](O)[C@H]7O)[C@H](O)[C@H]6O[C@@H]6O[C@@H](C)[C@H](O)[C@@H](O)[C@H]6O)C(C)(C)[C@@H]5CC[C@]43C)[C@@H]12 [BA-8] please.
**A:** 6.05
